- System: Colletotrichum orbiculare
- Format: in vivo
- conditionParameters: 100 ppm; cucumber; control 96.8
observable: Number of anthractic lesions in second leaf

molecule: CC1NC(=O)C2CCCN2C1=O (stereo not shown)
reportedValue: 27.8
//
molecule: O=C1NCC(=O)N2CCCC12 (stereo not shown) [Compound No. 29, hexahydropyrrolo[1,2-a]pyrazin-1,4-dione]
reportedValue: 87.0
//
molecule: CCC(C)C1NC(=O)C2CCCN2C1=O (stereo not shown)
reportedValue: 77.3

Now consider a different molecule.
What value of Number of anthractic lesions in second leaf on Colletotrichum orbiculare does CSC(=O)c1cccc2nnsc12 [BTH, reference compound] have?
100.3

----------
- System: Colletotrichum orbiculare
- Format: in vivo
- conditionParameters: 1 ppm; cucumber; control 12.5
observable: Number of anthractic lesions in first leaf
// return just the number, without any unit appended

Entry CCC(C)C1NC(=O)C2CCCN2C1=O (stereo not shown) : reported Number of anthractic lesions in first leaf = ?
2.3

----------
List of Number of anthractic lesions in second leaf values.
- System: Colletotrichum orbiculare
- Assay type: in vivo
- conditionParameters: 1 ppm; cucumber; control 96.8
Form field (numeric): enter value without unit.

Below, each entry is followed by its recorded Number of anthractic lesions in second leaf result.
molecule: CC1NC(=O)C2CCCN2C1=O (stereo not shown) [Compound No. 25]
studyTarget: Colletotrichum orbiculare
reportedValue: 46.0
//
molecule: CSC(=O)c1cccc2nnsc12 [BTH, reference compound]
studyTarget: Colletotrichum orbiculare
reportedValue: 100.3
//
molecule: O=C1NCC(=O)N2CCCC12 (stereo not shown) [Compound No. 29, hexahydropyrrolo[1,2-a]pyrazin-1,4-dione]
studyTarget: Colletotrichum orbiculare
reportedValue: 35.8

Query molecule follows.
Item under review: CCC(C)C1NC(=O)C2CCCN2C1=O (stereo not shown) [Compound No. 28] . Reported Number of anthractic lesions in second leaf?
62.3

----------
# Number of anthractic lesions in second leaf values compiled below
- Test system: Colletotrichum orbiculare
- Format: in vivo
- conditionParameters: 0.1 ppm; cucumber; control 96.8
Quick one: just the number, no unit, thanks!

Endpoint output: Number of anthractic lesions in second leaf of O=C1NCC(=O)N2CCCC12 (stereo not shown) [Compound No. 29, hexahydropyrrolo[1,2-a]pyrazin-1,4-dione] . Value?
51.3

Number of anthractic lesions in second leaf lookup needed for CSC(=O)c1cccc2nnsc12 [BTH, reference compound] , thanks.
100.3

Give its Number of anthractic lesions in second leaf value. Item: CC1NC(=O)C2CCCN2C1=O (stereo not shown) [Compound No. 25]
37.0

GET /values?readout=Number of anthractic lesions in second leaf&item= CCC(C)C1NC(=O)C2CCCN2C1=O (stereo not shown) [Compound No. 28]
55.3

----------
- Test system: Pectobacterium carotovorum SCC1
- assayProcedure: Inhibition of soft rot lesion in tobacco leaf
- Type: in vivo
- conditionParameters: 1 ppm, Table 3, control 87.5
observable: Area of lesion (%)
Just the number in %, nothing appended.

These solved cases illustrate the format of a correct answer.
compound: CC(C)CC1NC(=O)C(C(C)O)NC1=O (stereo not drawn) [Compound No. 3]
valueUnits: %
reportedValue: 20
--
compound: CSC(=O)c1cccc2nnsc12 [BTH, reference compound]
valueUnits: %
reportedValue: 52.5
--
compound: O=C1CNC(=O)C(Cc2c[nH]c3ccccc23)N1 (stereo not drawn) [Compound No. 5]
valueUnits: %
reportedValue: 2.5
--
compound: CC(C)CC1NC(=O)C(CO)NC1=O (stereo not drawn) [Compound No. 1]
valueUnits: %
reportedValue: 10

Quick one: Area of lesion for CC(C)C1NC(=O)CNC1=O (stereo not drawn) [Compound No. 4, 3-isopropyl-2,5-diketopiperazine] ?
17.5

Recorded Area of lesion of CC(C)CC1NC(=O)CNC1=O (stereo not drawn) [Compound No. 2, 3-(2-methylpropyl)-2,5-diketopiperazine] , please.
32.5

----------
- Test system: Pectobacterium carotovorum SCC1
- assayProcedure: Inhibition of soft rot lesion in tobacco leaf
- Assay type: in vivo
- conditionParameters: 100 ppm, Table 5, control 73.75
observable: Area of lesion (%)
Hi! Could you send only the number? It should be in %, unit omitted.

Field: example entries. Status: answers known.
molecule: O=C1N[C@H](Cc2ccccc2)C(=O)N2CCC[C@@H]12
studyTarget: Pectobacterium carotovorum SCC1
Area of lesion, %: 7.5
--
molecule: NC(=O)CC1NC(=O)C2CCCN2C1=O (stereo not shown)
studyTarget: Pectobacterium carotovorum SCC1
Area of lesion, %: 30
--
molecule: CCC(C)C1NC(=O)C2CCCN2C1=O (stereo not shown) [Compound No. 60]
studyTarget: Pectobacterium carotovorum SCC1
Area of lesion, %: 7.5

Please report the recorded Area of lesion for CSC(=O)c1cccc2nnsc12 [BTH, reference compound] .
50

Given the molecule CSCC[C@H]1NC(=O)[C@@H]2CCCN2C1=O , what is its reported Area of lesion?
12.5

Can you look up the measured Area of lesion of CSCC[C@H]1NC(=O)[C@H]2CCCN2C1=O for me?
52.5

Entry NC(=O)CC[C@H]1NC(=O)[C@@H]2CCCN2C1=O has what Area of lesion?
47.5

Returns the measured Area of lesion for the input molecule. Input: O=C1N[C@H](Cc2ccccc2)C(=O)N2CCC[C@H]12
65

Any idea what its Area of lesion is? The molecule is CC(C)C[C@H]1NC(=O)[C@H]2CCCN2C1=O
17.5

Which Area of lesion reading was recorded for the molecule O=C1N[C@H](Cc2ccc(O)cc2)C(=O)N2CCC[C@H]12 ?
60

----------
- Tested on: Pectobacterium carotovorum SCC1
- assayProcedure: Inhibition of soft rot lesion in cucumber leaf
- Format: in vivo
- conditionParameters: 1 ppm, Table 7, control 100
Recorded measurements of Area of lesion, one per entry
Provide the reading as a plain figure in %.

What reported Area of lesion corresponds to CCC(C)C1NC(=O)C2CCCN2C1=O (centres unmarked) on Pectobacterium carotovorum SCC1?
55

What Area of lesion appears in the records for this compound with Pectobacterium carotovorum SCC1? O=C1NCC(=O)N2CCCC12 (centres unmarked) [Compound No. 29, hexahydropyrrolo[1,2-a]pyrazin-1,4-dione]
43

----------
- Tested on: Pectobacterium carotovorum SCC1
- assayProcedure: Inhibition of soft rot lesion in tobacco leaf
- Format: in vivo
- conditionParameters: 100 ppm, Table 4, control 100
// values below are reported Area of lesion
Reply numerically in %, unit not repeated.

Some compounds with known Area of lesion results, for comparison:
compound: CCC(C)C1NC(=O)C2CCCN2C1=O (centres unmarked) [Compound No. 28]
observable: Area of lesion
reportedValue: 2.5
//
compound: CC1NC(=O)C2CCCN2C1=O (centres unmarked) [Compound No. 25]
observable: Area of lesion
reportedValue: 0
//
compound: CSC(=O)c1cccc2nnsc12 [BTH, reference compound]
observable: Area of lesion
reportedValue: 95
//
compound: O=C1NCC(=O)N2CCCC12 (centres unmarked) [Compound No. 29, hexahydropyrrolo[1,2-a]pyrazin-1,4-dione]
observable: Area of lesion
reportedValue: 0

Continue with the next compound.
Request the reported Area of lesion associated with O=C1C2CCCN2C(=O)C2CCCN12 (centres unmarked) [Compound No. 31]
17.5

----------
Area of lesion values by entry
- System: Pectobacterium carotovorum SCC1
- assayProcedure: Inhibition of soft rot lesion in tobacco leaf
- Type: in vivo
- conditionParameters: 10 ppm, Table 4, control 100
Write the number in % without appending the unit.

Use the examples below as a reference point.
molecule: CC1NC(=O)C2CCCN2C1=O (centres unmarked) [Compound No. 25]
valueUnits: %
Area of lesion: 12.5
//
molecule: O=C1NCC(=O)N2CCCC12 (centres unmarked) [Compound No. 29, hexahydropyrrolo[1,2-a]pyrazin-1,4-dione]
valueUnits: %
Area of lesion: 0

Would you kindly share the measured Area of lesion for CSC(=O)c1cccc2nnsc12 [BTH, reference compound] ?
95

I have this molecule here, O=C1C2CCCN2C(=O)C2CCCN12 (centres unmarked) [Compound No. 31] , and I need its recorded Area of lesion.
60

Could you share which Area of lesion value was measured for CCC(C)C1NC(=O)C2CCCN2C1=O (centres unmarked) [Compound No. 28] ?
82.5

----------
- Test system: Colletotrichum orbiculare
- Assay type: in vivo
- conditionParameters: 10 ppm; cucumber; control 96.8
observable: Number of anthractic lesions in second leaf
When you answer, write just the number.

Examples with their reported Number of anthractic lesions in second leaf follow.
compound: CCC(C)C1NC(=O)C2CCCN2C1=O (stereo not shown) [Compound No. 28]
studyTarget: Colletotrichum orbiculare
reportedValue: 87.3
--
compound: O=C1NCC(=O)N2CCCC12 (stereo not shown) [Compound No. 29, hexahydropyrrolo[1,2-a]pyrazin-1,4-dione]
studyTarget: Colletotrichum orbiculare
reportedValue: 55.5
--
compound: CC1NC(=O)C2CCCN2C1=O (stereo not shown) [Compound No. 25]
studyTarget: Colletotrichum orbiculare
reportedValue: 22.5

Then there is this compound:
I'm curious: which Number of anthractic lesions in second leaf was measured for CSC(=O)c1cccc2nnsc12 [BTH, reference compound] tested on Colletotrichum orbiculare?
100.3

Every entry's value here was drawn from patent US20170204102A1.
